system: UACC-62 melanoma; assay: NCI tumour cell line growth inhibition, 48 h
endpoint: TGI

COCn1c(=O)n(C)c(=O)c2c1nc1c(c(=O)n(C)c(=O)n1COC)[n+]2[O-]; 33.7 µM
CCOC(=O)NC(=O)c1cn(CC(=O)NCC(=O)NCC(=O)N2CCN(CCn3c(C)nc(C(N)=O)c3N)CC2)c(=O)[nH]c1=O; > 100 µM
C[C@]12CC/C(=N\O)C[C@@H]1CC[C@@H]1[C@@H]2CC[C@]2(C)/C(=N/O)CC[C@@H]12; > 100 µM
COc1ccc2c(c1)C(=O)c1c-2n(CCCCl)c(=O)c2cc([N+](=O)[O-])ccc12; 1.81 µM
COc1c(N2CCCCC2)c2c(=O)c3ccccc3oc2c2cc(C)oc12; 68.3 µM
Cc1cc2nn(C3CCCCO3)nc2cc1C (stereo unspecified); > 100 µM
CC[C@]1(Cc2ccc(OC)c(OC)c2)C=[N+]([O-])O[C@H](OC2CCCCC2c2ccccc2)[C@@H]1OC(C)=O (stereo partly specified); > 100 µM
COc1ccc(C2CC(c3ccc4ccccc4c3)=NN2/C=C2\SC(=S)N(NC(=O)Cc3ccccc3Nc3c(Cl)cccc3Cl)C2=O)cc1 (stereo unspecified); > 43.8 µM

For each of the items listed, what is its TGI?
1. CN(Cc1ccccc1)c1ncnc2ccc(Br)cc12
2. CCOc1ccc(NC(=O)/C(Cc2nc3ccccc3[nH]c2=O)=N\O)cc1
3. O=C(Nc1ccc(-n2ccc3c(NC(=O)c4ccccc4)ncnc32)cc1)Nc1ccc(Cl)c(C(F)(F)F)c1

1. 27.1 µM
2. > 100 µM
3. 4.59 µM

For each of the items listed, what is its TGI?
1. CCCCCCCCCCCCCCCCCCNc1ccn(C2OC(COP(=O)(O)OCC(COP(=O)(O)OCC3OC(n4cc(C)c(=O)[nH]c4=O)CC3N=[N+]=[N-])OCCCCCCCCCCCCCCCCCC)C(O)C2O)c(=O)n1 (stereo unspecified)
2. COc1cc(/C=C2/CCCc3ccccc3C2=O)cc(OC)c1OC
3. COc1cc(C(=O)O)cc2c1[nH]c1ccccc12
4. CCN1C(=O)/C(=C\c2coc3ccccc3c2=O)SC1=S

> 100 µM
> 67.4 µM
> 25 µM
> 100 µM

====

system: A498 renal; assay: NCI tumour cell line growth inhibition, 48 h
Mark NOT MET for TGI values under 30 µM, and MET for everything at or above.

// known answers, use as guide
CC(/C=C/c1ccccc1)=N\N=C(C)\C=C\c1ccccc1; MET
O=C(Nc1ccc(-n2ccc3c(NC(=O)c4ccccc4)ncnc32)cc1)Nc1ccc(Cl)c(C(F)(F)F)c1; NOT MET
COc1cc(-c2nn(-c3ccc(NC(=O)Nc4ccc(Cl)c(C(F)(F)F)c4)cc3)cc2-c2ccncc2)ccc1Cl; NOT MET
CCC1CCC2C3CC=C4CC(OC(C)=O)C(N)CC4(C)C3CCC12C (stereo unspecified); NOT MET
C=C(c1ccccc1)[C@@]1(O)CCCC[C@H]1NC(c1ccccc1)c1ccccc1; NOT MET

Reported TGI at or above 30 µM? C[C@]12CC[C@H](OC(=O)Cc3ccc(N(CCCl)CCCl)cc3)CC1CC[C@@H]1C2CC[C@]2(C)NC(=O)CCC12 (stereo partly specified)
MET

Reported TGI at or above 30 µM? O=C1CC(C(O)C(O)C(O)CO)CC(=O)N1 (stereo unspecified)
MET

Reported TGI at or above 30 µM? Cc1cccc(-c2cccc(COCc3cccc(-c4cccc(CO)n4)n3)n2)n1
MET

Reported TGI at or above 30 µM? C=CCNC(=O)ON1C(=O)CCC1=O
MET

Reported TGI at or above 30 µM? c1cc2c(cc1NC1=NCCO1)CCCC2
NOT MET

Reported TGI at or above 30 µM? O=P1(N(CCCl)CCCl)Oc2c(Cl)cc(Cl)c(Cl)c2Cc2c(Cl)c(Cl)cc(Cl)c2O1
MET

Reported TGI at or above 30 µM? COc1ccc2c(c1)CC[C@@H]1C2CC[C@]2(C)C(=N\O)/C(=N/O)CC12 (stereo partly specified)
MET

Reported TGI at or above 30 µM? Cc1nc2ccc(F)cc2c2c1CCN2c1ccccc1
MET

Reported TGI at or above 30 µM? CC(C)(c1ccccc1)c1ccc(Oc2ccc3c(c2)-c2nc-3nc3[nH]c(nc4nc(nc5[nH]c(n2)c2ccc(Oc6ccc(C(C)(C)c7ccccc7)cc6)cc52)-c2cc(Oc5ccc(C(C)(C)c6ccccc6)cc5)ccc2-4)c2ccc(Oc4ccc(C(C)(C)c5ccccc5)cc4)cc32)cc1
MET

Reported TGI at or above 30 µM? CC1(C)[C@H]2CC[C@](C)(C2)[C@]1(S)Cc1ccccn1
MET
